# assayed.target: Pteridine reductase 1 (Leishmania major)
# Sequence (Q01782 whole entry): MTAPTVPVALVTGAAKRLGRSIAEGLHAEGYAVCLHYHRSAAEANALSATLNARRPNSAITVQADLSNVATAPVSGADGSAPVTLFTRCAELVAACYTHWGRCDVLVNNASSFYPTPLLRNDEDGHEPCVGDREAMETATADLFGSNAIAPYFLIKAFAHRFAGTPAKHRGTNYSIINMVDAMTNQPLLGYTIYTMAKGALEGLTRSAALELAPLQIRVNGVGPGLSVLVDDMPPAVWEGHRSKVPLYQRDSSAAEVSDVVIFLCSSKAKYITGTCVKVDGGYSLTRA
# assay.name: Inhibition of Leishmania major pteridine reductase 1 at 50 uM using di-hydrobiopterine as substrate in presence of NADPH relative to control
reported.property: inhibition

Problem: What value of measured inhibition is listed for `Nc1nc2ccc(S(=O)(=O)Cc3ccccc3)cc2s1` ?
Result: 27.1%

Problem: What value of measured inhibition is listed for `COc1cc(CNC(=O)c2ccc3nc(N)sc3c2)cc(OC)c1OC` ?
Result: 67.1%

Problem: What value of measured inhibition is listed for `COC(=O)c1ccc(CSc2ccc3nc(N)sc3c2)cc1` ?
Result: > 60%

###

Record form. Attribute: log10(IC50). Fill in for each entry.
# assayed.target: UniProt:Q01782
# assay.name: Inhibition of Leishmania major pteridine reductase 1 using di-hydrobiopterine as substrate in presence of NADPH
# test.context: read-out: IC50
On a log10 scale: recorded IC50, unit µM.

Problem: What value of measured log10(IC50) is listed for `Nc1nc2ccc(SC(F)(F)F)cc2s1` ?
Result: 0.28

Problem: What value of measured log10(IC50) is listed for `COC(=O)c1ccc(CSc2ccc3nc(N)sc3c2)cc1` ?
Result: 1.68

Problem: What value of measured log10(IC50) is listed for `Nc1nc2ccc(C(=O)NCc3ccccc3N)cc2s1` ?
Result: 1.81

Problem: What value of measured log10(IC50) is listed for `COC(=O)C1CCN(C(=O)c2ccc(COc3ccc4nc(N)sc4c3)cc2)CC1` ?
Result: 1.50

Problem: What value of measured log10(IC50) is listed for `CS(=O)(=O)c1ccc2nc(N)sc2c1` ?
Result: 1.52

Problem: What value of measured log10(IC50) is listed for `Nc1nc2ccc(C(=O)NC(c3ccccc3)c3ccccc3)cc2s1` ?
Result: 1.95

Problem: What value of measured log10(IC50) is listed for `COC(=O)c1ccc(CNC(=O)c2ccc3nc(N)sc3c2)cc1` ?
Result: 1.56

Problem: What value of measured log10(IC50) is listed for `Nc1nc2ccc(C(=O)NCc3ccccc3)cc2s1` ?
Result: 1.79

Problem: What value of measured log10(IC50) is listed for `COC(=O)c1ccc(COc2ccc3nc(N)sc3c2)cc1` ?
Result: 1.82

Problem: What value of measured log10(IC50) is listed for `N#Cc1ccc(CNC(=O)c2ccc3nc(N)sc3c2)cc1` ?
Result: 1.87

Problem: What value of measured log10(IC50) is listed for `N#Cc1ccc(COc2ccc3nc(N)sc3c2)cc1` ?
Result: 1.94

Problem: What value of measured log10(IC50) is listed for `Nc1nc2c(C(=O)NCc3ccccc3)cc(O)c(O)c2s1` ?
Result: 1.48

Problem: What value of measured log10(IC50) is listed for `Nc1nc2c(C(=O)N(Cc3ccccc3)Cc3ccc(Cl)c(Cl)c3)cc(O)c(O)c2s1` ?
Result: 1.18

Problem: What value of measured log10(IC50) is listed for `Nc1nc2ccc(SCc3ccccc3)cc2s1` ?
Result: 1.91

Problem: What value of measured log10(IC50) is listed for `Nc1nc2c(C(=O)NCc3ccc(Cl)c(Cl)c3)cc(O)c(O)c2s1` ?
Result: 1.57

Problem: What value of measured log10(IC50) is listed for `N#Cc1ccc(CSc2ccc3nc(N)sc3c2)cc1` ?
Result: 1.09

Problem: What value of measured log10(IC50) is listed for `Nc1nc2ccc(C(=O)NCc3ccccc3[N+](=O)[O-])cc2s1` ?
Result: 0.55

Problem: What value of measured log10(IC50) is listed for `Nc1nc2ccc(SCc3ccc(Cl)c(Cl)c3)cc2s1` ?
Result: 1.00

Problem: What value of measured log10(IC50) is listed for `Nc1nc2ccc(SCc3ccc(C(=O)NCc4ccccc4)cc3)cc2s1` ?
Result: 1.48
